Target: T1, hCMV gH + gL + UL128 + UL130 + UL131A (5-member complex; HEK293T co-transfectant) (hCMV, UniProt P12824 24-743; P16832 31-278; P16837 1-171; P16772 1-214)
T1 construct: whole, on cells; in the functional rows it stands for the complex on virions or transduced cells of the strain or isolate named in the readout; also called gH/gL/UL128-131A complex; pentameric complex
Assay: cell competition; competitor 10F7-biotin
QUANTITY_NAME: Inhibition of binding (%)

BINDER: 15D8 (antibody, V domains shown, human IgG; also called 15D8-biotin) VH: EVQLVQSGAEVKKPGESLKISCQASGYSFTNYWIAWVRQMPGKGLEWMGIIYPGDSDIKYSPSFRGQVTISADKSISNAFLQWRSLRASDTAMYYCARHAIRGDGFDYWGQGTLVTVSS VL: SYELTQPPSVSVSPGQTATITCSGDKLGEKYACWYQQKPGQSPVLVMYQDTKRPSGIPERFSGSNSGNTATLTISGTRAMDEADYYCQAWDTNTVIFGGGTKLTVL
QUANTITY_NAME: Inhibition of binding (%)
MEASURE_UNIT: %
READING: 0

BINDER: 8L13 (antibody, V domains shown, human IgG) VH: QVQLLESGGGVVQPGRSLRLSCAASGFTFSNYGMHWVRQAPGKGLEWVAVIWNDGSKKYYAESVKGRFTISRDNSKNTVYLQMNSLRAEDTAVYYCARDEGVQMVFAMPDYGMDVWGQGTTVTVSS VL: SYELTQPPSVSVSPGQTASITCSGDKLGDKFACWYQQRPGQSPILVIYQDSKRPSGIPERFSGSNSGNTATLTIRGTQAMDEADYYCQAWDSSTAHYVFGTGTKVTVL
QUANTITY_NAME: Inhibition of binding (%)
MEASURE_UNIT: %
READING: 100

BINDER: 4N10 (antibody, V domains shown, human IgG; also called 4N10-biotin) VH: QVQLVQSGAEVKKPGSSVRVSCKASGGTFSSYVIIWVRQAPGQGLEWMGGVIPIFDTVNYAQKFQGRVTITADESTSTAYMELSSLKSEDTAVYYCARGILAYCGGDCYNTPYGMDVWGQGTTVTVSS VL: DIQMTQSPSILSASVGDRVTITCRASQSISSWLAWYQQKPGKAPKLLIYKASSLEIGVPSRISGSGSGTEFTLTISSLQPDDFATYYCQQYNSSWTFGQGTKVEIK
QUANTITY_NAME: Inhibition of binding (%)
MEASURE_UNIT: %
READING: 0
